System: MS2 coat protein
Experiment: apparent KD of MS2 coat protein; designed switch direction (-1 OFF switch, 1 ON switch): -1; higher = weaker reporter binding
Conditions: Eterna round: R95; input ligand: FMN 200 uM
Decide using apparent KD of MS2 coat protein: a value greater than or equal to 100 nM is Fulfilled, a smaller one is Not fulfilled.

UUAUAUAGUGUGAGGAUAUGCUGGUCCUUGGAUCAGCAGAAGGCACAUGAGGAUCACCCAUGUAGUUAAAUAUA [Mat - Exclusion 4 - JL Mod - D18] (puzzle: Brourd's mod of Exclusion 4) : Fulfilled
CCAGGCAGUGUGAGGAUAUGCUGGUGCAUACAUCAGCAGAAGGCACAUGAGGAUCACCCAUGUGAAGAGCUUGG [Mat - Exclusion 4 - JL Mod - D98] (puzzle: Brourd's mod of Exclusion 4) : Fulfilled
AAAUACAAGCAAAGAUCCUACAUGAGGAUCACCCAUGUGCUCGUCUUAUAAAGUACUAUCACGAAAGUGAUAGUACA [Sensor 3, v1 - 15] (puzzle: Sensor v3, turn-off variant 1) : Fulfilled

From here, focus on the item given below.
Q. Evaluate UUUAAUUUUUUUUUUUUACAAGCUUUUUGCUCGUCUUAUACAUGAGGAUCACCCAUGUGGGUAGAGGAUAAAUUAUC [JMF 28] (puzzle: Sensor v3, turn-off variant 2) : apparent KD of MS2 coat protein at minimum 100 nM?
A. Not fulfilled
